Measured values drawn from ChEMBL document CHEMBL1129258 for this set.

target: DNA gyrase (Staphylococcus aureus) (UniProt P0A0K8+P20831); assay: In vitro antibacterial activity against gram-positive organism Staphylococcus aureus NCTC-10649M; format: functional
Sequence (P0A0K8 2-644 limits assumed): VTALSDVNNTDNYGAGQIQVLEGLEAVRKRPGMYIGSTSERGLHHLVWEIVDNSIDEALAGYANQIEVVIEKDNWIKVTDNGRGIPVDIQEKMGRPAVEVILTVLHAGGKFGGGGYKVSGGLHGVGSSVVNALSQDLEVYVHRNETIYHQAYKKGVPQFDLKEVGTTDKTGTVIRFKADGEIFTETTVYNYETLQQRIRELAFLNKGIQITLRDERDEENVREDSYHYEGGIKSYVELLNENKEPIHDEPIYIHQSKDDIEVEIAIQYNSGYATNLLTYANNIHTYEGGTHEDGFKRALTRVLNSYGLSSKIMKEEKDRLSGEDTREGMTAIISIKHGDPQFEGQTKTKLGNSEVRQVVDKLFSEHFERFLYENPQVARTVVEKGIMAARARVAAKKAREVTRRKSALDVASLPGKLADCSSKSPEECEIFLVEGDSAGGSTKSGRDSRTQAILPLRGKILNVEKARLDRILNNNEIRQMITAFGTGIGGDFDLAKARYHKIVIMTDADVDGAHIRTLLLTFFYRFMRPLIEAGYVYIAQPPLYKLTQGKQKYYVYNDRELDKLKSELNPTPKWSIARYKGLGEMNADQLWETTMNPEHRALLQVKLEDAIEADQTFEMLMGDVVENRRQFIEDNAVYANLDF
Sequence (P20831 whole entry partner): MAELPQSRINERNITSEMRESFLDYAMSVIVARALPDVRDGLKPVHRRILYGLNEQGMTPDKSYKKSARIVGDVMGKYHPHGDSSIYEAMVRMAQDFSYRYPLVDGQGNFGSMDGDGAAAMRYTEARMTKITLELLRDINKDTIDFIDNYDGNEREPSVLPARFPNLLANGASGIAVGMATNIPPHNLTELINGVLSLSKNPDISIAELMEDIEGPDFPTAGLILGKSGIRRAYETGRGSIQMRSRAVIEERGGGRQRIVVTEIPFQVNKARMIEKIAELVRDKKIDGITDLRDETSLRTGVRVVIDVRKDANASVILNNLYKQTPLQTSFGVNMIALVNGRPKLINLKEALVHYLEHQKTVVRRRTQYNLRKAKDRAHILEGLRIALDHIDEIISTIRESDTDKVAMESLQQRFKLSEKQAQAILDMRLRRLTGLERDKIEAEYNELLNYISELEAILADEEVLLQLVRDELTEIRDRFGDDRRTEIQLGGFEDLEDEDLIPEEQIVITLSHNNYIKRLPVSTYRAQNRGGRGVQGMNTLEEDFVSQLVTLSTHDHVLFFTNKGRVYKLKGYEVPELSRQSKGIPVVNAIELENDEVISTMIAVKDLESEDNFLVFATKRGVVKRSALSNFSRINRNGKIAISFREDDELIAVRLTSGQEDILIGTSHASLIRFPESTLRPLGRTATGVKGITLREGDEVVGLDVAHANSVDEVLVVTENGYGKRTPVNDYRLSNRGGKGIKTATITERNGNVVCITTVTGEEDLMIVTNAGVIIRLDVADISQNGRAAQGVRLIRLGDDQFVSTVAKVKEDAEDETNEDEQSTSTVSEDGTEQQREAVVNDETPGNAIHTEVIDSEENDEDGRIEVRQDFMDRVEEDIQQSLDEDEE
readout_label: MIC (µg/mL)
State just the number; it will be interpreted in µg/mL.

Reference set (6 entries):
>  <molecule>
Cc1c(N2CC[C@@]3(C[C@H]3N)C2)c(F)cn2c(=O)c(C(=O)O)cc(C3CC3)c12

>  <readout_units>
µg/mL

>  <MIC>
0.01

$$$$
>  <molecule>
NC1CCN(c2nc3c(-c4c(F)c(F)c(F)c(F)c4F)cc(C(=O)O)c(=O)n3cc2F)C1 (configuration not stated)

>  <readout_units>
µg/mL

>  <MIC>
50

$$$$
>  <molecule>
O=C(O)c1cc(C2CC2)c2cc(N3CCNCC3)c(F)cn2c1=O

>  <readout_units>
µg/mL

>  <MIC>
0.39

$$$$
>  <molecule>
Cc1c(N2C[C@@H]3CCCN[C@@H]3C2)c(F)cn2c(=O)c(C(=O)O)cc(C3CC3)c12 (stereo in doubt; 45n)

>  <readout_units>
µg/mL

>  <MIC>
0.02

$$$$
>  <molecule>
Cc1c(N2CCC(C)(N)C2)c(F)cn2c(=O)c(C(=O)O)cc(C3CC3)c12 (configuration not stated)

>  <readout_units>
µg/mL

>  <MIC>
0.05

$$$$
>  <molecule>
COc1c(N2CCC(N)C2)c(F)cn2c(=O)c(C(=O)O)cc(C3CC3)c12 (configuration not stated)

>  <readout_units>
µg/mL

>  <MIC>
0.05

$$$$

Moving on to another molecule below.
Fill in the blank: the reported MIC of Cc1c(N2CC[C@@]3(C[C@@H]3N)C2)c(F)cn2c(=O)c(C(=O)O)cc(C3CC3)c12 is ____.
0.02

* * *

target: DNA gyrase (Escherichia coli) (UniProt P0AES6+P0AES4); test: In vitro antibacterial activity against gram-negative organism Prov. stuartii CMX-640; type: functional; conditions: Providencia stuartii
readout_label: MIC (µg/mL)
State just the number; it will be interpreted in µg/mL.

Reference set (3 entries):
>  <compound>
Cc1c(N2CC[C@@H](N)C2)c(F)cn2c(=O)c(C(=O)O)cc(C3CC3)c12

>  <MIC, µg/mL>
0.2

$$$$
>  <compound>
Cc1c(N2C[C@H]3CCC[C@@H](N)[C@H]3C2)c(F)cn2c(=O)c(C(=O)O)cc(C3CC3)c12

>  <MIC, µg/mL>
0.39

$$$$
>  <compound>
NC1CCN(c2c(F)cn3c(=O)c(C(=O)O)cc(C4CC4)c3c2F)C1 (stereo not given)

>  <MIC, µg/mL>
3.1

$$$$

Fill in the blank: the reported MIC of Cc1c(N2CCCNCC2)c(F)cn2c(=O)c(C(=O)O)cc(C3CC3)c12 is ____.
3.1

* * *

test: Maximum plasma concentration in rats after an oral dose of 5 mg/kg; conditions: rat
Catalogue of Cmax values
Answer format: number, then unit.

Reference set (3 entries):
>  <molecule>
Cc1c(N2CCC(O)C2)c(F)cn2c(=O)c(C(=O)O)cc(C3CC3)c12 (configuration not stated)

>  <readout_label>
Cmax

>  <val>
1420 ng/mL

$$$$
>  <molecule>
Cc1c(N2CC[C@@H](N)C2)c(F)cn2c(=O)c(C(=O)O)cc(C3CC3)c12

>  <readout_label>
Cmax

>  <val>
80 ng/mL

$$$$
>  <molecule>
Cc1c(N2CC[C@@H]3CNC[C@@H]32)c(F)cn2c(=O)c(C(=O)O)cc(C3CC3)c12

>  <readout_label>
Cmax

>  <val>
330 ng/mL

$$$$

Fill in the blank: the reported Cmax of Cc1c(N2CC[C@H](N)C2)c(F)cn2c(=O)c(C(=O)O)cc(C3CC3)c12 is ____.
270 ng/mL

Fill in the blank: the reported Cmax of Cc1c(N2C[C@@H](N)[C@@H](C)C2)c(F)cn2c(=O)c(C(=O)O)cc(C3CC3)c12 is ____.
170 ng/mL

Fill in the blank: the reported Cmax of Cc1c(N2C[C@@H]3CCN[C@@H]3C2)c(F)cn2c(=O)c(C(=O)O)cc(C3CC3)c12 (stereo in doubt; 45o) is ____.
1130 ng/mL

Fill in the blank: the reported Cmax of Cc1c(N2C[C@@H](N)C[C@@H]2C)c(F)cn2c(=O)c(C(=O)O)cc(C3CC3)c12 is ____.
740 ng/mL
